Data provenance: ChEMBL document CHEMBL4765310

# Species: Homo sapiens
# test.summary: Inhibition of dimerization of N-terminal His6-tagged human c-Myc bHLHZip domain (353 to 439 residues)/Max(151 residues) (unknown origin) expressed in Escherichia coli BL21DE3 assessed as inhibition of c-Myc/Max/DNA complex formation at 20 uM preincubated with c-Myc/Max for 1.5 hrs followed by incubation with DNA oligo for 0.5 hrs by EMSA analysis relative to control
# applied.conditions: time 2.0 hrs
// reported inhibition for each item listed
Express it in %; write the number only.

In the examples that follow, each entry is paired with its recorded inhibition.
Data request: Entry COc1cc(Oc2cccc(Nc3ccccc3)c2)cc(OC)c1CNCCc1ccc(O)cc1 has what inhibition?
Data returned: 51.7

Data request: Which inhibition is listed for COc1cc(Oc2cccc(Nc3ccccc3)c2)cc(OC)c1CNCCc1ccc(C)cc1 ?
Data returned: 46.2

Data request: Data request, read-out inhibition, for COc1ccccc1CCNCc1c(OC)cc(Oc2cccc(Nc3ccccc3)c2)cc1OC
Data returned: 67.4

Data request: Reported inhibition for COc1cc(Oc2cccc(Nc3ccccc3)c2)cc(OC)c1CNCCc1ccc(F)cc1 : what is it?
Data returned: 40.5

Data request: I have this compound here, COc1ccc(CCNCc2ccc(Oc3cccc(Nc4ccccc4)c3)cc2)cc1 , and I need its recorded inhibition.
Data returned: 35.6

Data request: Dear colleague, I am looking for the recorded inhibition of the following compound: COc1ccc(CCCNCc2c(OC)cc(Oc3cccc(Nc4ccccc4)c3)cc2OC)cc1
Data returned: 63.4

Data request: Please report the recorded inhibition for COc1cc(Oc2cccc(Nc3ccccc3)c2)cc(OC)c1CNCCNC(C)=O .
Data returned: 10.2

Data request: Recorded inhibition of COc1cc(Oc2cccc(Nc3ccccc3)c2)cc(OC)c1CNC12CC3CC(CC(C3)C1)C2 , please.
Data returned: 12.6

Data request: GET /values?readout=inhibition&item= COc1cc(Oc2cccc(Nc3ccccc3)c2)cc(OC)c1CNC1CC1
Data returned: 1.7

Data request: Endpoint output: inhibition of COc1cc(Oc2cccc(Nc3ccccc3)c2)cc(OC)c1CNCCc1ccc(Cl)cc1 . Value?
Data returned: 43.7

New cases:
Data request: // query inhibition value for entry COc1cc(Oc2cccc(Nc3ccccc3)c2)cc(OC)c1CNCc1ccccc1
Data returned: 26.4

Data request: Which inhibition value belongs to COc1cc(Oc2cccc(Nc3ccccc3)c2)cc(OC)c1CNCc1ccc(O)cc1 ?
Data returned: 31.8

Data request: Value lookup for inhibition; key = COc1cc(Oc2cccc(Nc3ccccc3)c2)cc(OC)c1CN[C@H](C)c1ccccc1
Data returned: 30.5

Data request: # query: inhibition of entry COc1cc(Oc2cccc(Nc3ccccc3)c2)cc(OC)c1CNCc1ccc2c(c1)OCO2
Data returned: 42.1

Data request: Dear colleague, I am looking for the recorded inhibition of the following compound: COc1cc(Oc2cccc(Nc3ccccc3)c2)cc(OC)c1CNCc1ccc(Cl)cc1
Data returned: 25.7

Data request: Sample COc1cccc(CCNCc2c(OC)cc(Oc3cccc(Nc4ccccc4)c3)cc2OC)c1 — what was its inhibition?
Data returned: 60.8

Data request: Quick one: inhibition for COc1ccc(CCNCc2c(OC)cc(Oc3cccc(Nc4ccccc4)c3)cc2OC)cc1 ?
Data returned: 75.1
